Some variants, each annotated with its measured polymerase ribozyme fitness (log ratio).
B1: TPR t1 (parent)
chain: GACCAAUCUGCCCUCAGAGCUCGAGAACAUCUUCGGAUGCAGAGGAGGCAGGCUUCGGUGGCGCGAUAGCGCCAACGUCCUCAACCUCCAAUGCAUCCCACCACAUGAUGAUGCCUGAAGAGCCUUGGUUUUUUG

Variants of: B1
Assay: polymerase ribozyme fitness, log enrichment relative to wild type (log ratio); higher = more active; in vitro selection for triplet polymerase activity

[
  {
    "alteration": "G57U C62U U67C U87G C101G G113C",
    "polymerase ribozyme fitness (log ratio)": -6.27
  },
  {
    "alteration": "C28A G61C",
    "polymerase ribozyme fitness (log ratio)": -5.18
  },
  {
    "alteration": "C20U A29G G63A C80U",
    "polymerase ribozyme fitness (log ratio)": -4.01
  },
  {
    "alteration": "G10A C70G",
    "polymerase ribozyme fitness (log ratio)": -2.45
  },
  {
    "alteration": "C80U U106A",
    "polymerase ribozyme fitness (log ratio)": -0.267
  },
  {
    "alteration": "U55A U59C U78G C82A G110A",
    "polymerase ribozyme fitness (log ratio)": -2.6
  },
  {
    "alteration": "G51A U54G C73G C98U",
    "polymerase ribozyme fitness (log ratio)": -5.39
  },
  {
    "alteration": "C4G U9G A41G U96C A111C U116A C123G",
    "polymerase ribozyme fitness (log ratio)": -1.71
  },
  {
    "alteration": "A6U U54A C62U",
    "polymerase ribozyme fitness (log ratio)": 0.317
  },
  {
    "alteration": "A66G C124G",
    "polymerase ribozyme fitness (log ratio)": 1.19
  },
  {
    "alteration": "A29U C40U G60C U131A",
    "polymerase ribozyme fitness (log ratio)": -2.41
  },
  {
    "alteration": "C4U A27G",
    "polymerase ribozyme fitness (log ratio)": -2.96
  },
  {
    "alteration": "G51A U112C",
    "polymerase ribozyme fitness (log ratio)": -2.05
  },
  {
    "alteration": "C12U G19C C56U U81G C104A G117C",
    "polymerase ribozyme fitness (log ratio)": -5.9
  },
  {
    "alteration": "C12A G19A C20A C53U C89A",
    "polymerase ribozyme fitness (log ratio)": -3.61
  },
  {
    "alteration": "C34A A50C C53G U106A A111C",
    "polymerase ribozyme fitness (log ratio)": -5.87
  },
  {
    "alteration": "C15G A29G C88G",
    "polymerase ribozyme fitness (log ratio)": -3.43
  },
  {
    "alteration": "C53U C72A A90U C101A",
    "polymerase ribozyme fitness (log ratio)": -2.92
  },
  {
    "alteration": "C49U C53U C70U C79U",
    "polymerase ribozyme fitness (log ratio)": -4.07
  },
  {
    "alteration": "C11G A18C C49A C88G U109A",
    "polymerase ribozyme fitness (log ratio)": -6.8
  },
  {
    "alteration": "C22G U38G U87A C98G U112C C114A",
    "polymerase ribozyme fitness (log ratio)": -6.53
  },
  {
    "alteration": "G39U C49A C72A G93C A95C C115U",
    "polymerase ribozyme fitness (log ratio)": -5.1
  }
]
